- Tested on: K. pneumoniae ATCC700603
- assay.method.text: MIC, CLSI broth microdilution, Test Example 2
- Format: cell-based
- setup.conditions: Klebsiella pneumoniae, ATCC700603; SHV18 ESBL producing strain; cation-adjusted Iso-Sensitest broth containing human Apo-transferrin; 5×10^5 cfu/mL; read-out: Minimum Inhibitory Concentration (MIC) K. pneumoniae ATCC 700603
recorded.metric: MIC (µg/mL)
Supply the numeric figure in µg/mL, leaving out any unit text.

Can you share its MIC? I mean this molecule: C[N+](C)(CCNC(=O)c1ccc(O)c(O)c1Cl)CC1=C(c2nnn[nH]2)N2C(=O)[C@@H](NC(=O)/C(=N\O[C@@H](CC(=O)O)C(=O)[O-])c3nc(N)sc3Cl)[C@H]2SC1
0.125

Can you share its MIC? I mean this molecule: CC(C)(O/N=C(\C(=O)N[C@@H]1C(=O)N2C(c3nnn[n-]3)=C(C[n+]3cccc4c3CCCN4C(=O)c3ccc(O)c(O)c3Cl)CS[C@H]12)c1nc(N)sc1Cl)C(=O)[O-].[Na+]
0.125

Can you share its MIC? I mean this molecule: CC(C)(O/N=C(\C(=O)N[C@@H]1C(=O)N2C(c3nnn[n-]3)=C(C[n+]3ccc(NC(=O)c4ccc(O)c(O)c4Cl)cc3)CS[C@H]12)c1nc(N)sc1Cl)C(=O)[O-].[Na+]
0.5

----------
For each entry below, report its MIC value.
- Test system: A. baumannii SR27323
- assay.method.text: MIC, CLSI broth microdilution, Test Example 1
- Assay type: cell-based
- setup.conditions: Acinetobacter baumannii, SR27323; OXA-23, OXA-58 carbapenemase producing strain; cation-adjusted Mueller Hinton broth containing human apo-transferrin; 5×10^5 cfu/mL; read-out: Minimum Inhibitory Concentration (MIC) A. baumannii SR27323
Supply the numeric figure in µg/mL, leaving out any unit text.

Can you share its MIC? I mean this compound: CC(C)(O/N=C(\C(=O)N[C@@H]1C(=O)N2C(c3nnn[n-]3)=C(Cn3cc4ccc(CNC(=O)c5ccc(O)c(O)c5Cl)c[n+]4c3)CS[C@H]12)c1csc(N)n1)C(=O)[O-].[Na+]
1

Can you share its MIC? I mean this compound: CC(C)(O/N=C(\C(=O)N[C@@H]1C(=O)N2C(c3nnn[n-]3)=C(Cn3cc[n+](CCNC(=O)c4ccc(O)c(O)c4Cl)c3)CS[C@H]12)c1csc(N)n1)C(=O)[O-].[Na+]
0.5

Can you share its MIC? I mean this compound: CC(C)(O/N=C(\C(=O)N[C@@H]1C(=O)N2C(c3nnn[nH]3)=C(C[N+]3(CCNC(=O)c4cc(Cl)c(O)c(O)c4Cl)CCCC3)CS[C@H]12)c1csc(N)n1)C(=O)[O-]
1

----------
- Tested on: P. aeruginosa SR01332
- assay.method.text: MIC, CLSI broth microdilution, Test Example 2
- Format: cell-based
- setup.conditions: Pseudomonas aeruginosa, SR01332; VIM-11 MBL producing strain (carbapenem resistance strain); cation-adjusted Iso-Sensitest broth containing human Apo-transferrin; 5×10^5 cfu/mL; read-out: Minimum Inhibitory Concentration (MIC) P. aeruginosa SR01332
For each entry below, report its MIC value.
Supply the numeric figure in µg/mL, leaving out any unit text.

Can you share its MIC? I mean this compound: CC(C)(O/N=C(\C(=O)N[C@@H]1C(=O)N2C(c3nnn[nH]3)=C(C[N+]3(C)[C@@H]4CC[C@H]3C[C@@H](NC(=O)c3cc(O)c(O)c(F)c3)C4)CS[C@H]12)c1nsc(N)n1)C(=O)O.[Na+] (stereo partly drawn)
4

Can you share its MIC? I mean this compound: Cc1cc2cc(O)c(O)cc2c[n+]1CC1=C(c2nnn[n-]2)N2C(=O)[C@@H](NC(=O)/C(=N\OC(C)(C)C(=O)[O-])c3csc(N)n3)[C@H]2SC1.[Na+]
1

Can you share its MIC? I mean this compound: Nc1nc(/C(=N/O[C@@H](CC(=O)O)C(=O)[O-])C(=O)N[C@@H]2C(=O)N3C(c4nnn[nH]4)=C(C[N+]4(CCNC(=O)c5ccc(O)c(O)c5F)CCCC4)CS[C@H]23)cs1
4

----------
- Test system: K. pneumoniae ATCC700603
- assay.method.text: MIC, CLSI broth microdilution, Test Example 2
- Assay type: cell-based
- setup.conditions: Klebsiella pneumoniae, ATCC700603; SHV18 ESBL producing strain; cation-adjusted Iso-Sensitest broth containing human Apo-transferrin; 5×10^5 cfu/mL; read-out: Minimum Inhibitory Concentration (MIC) K. pneumoniae ATCC 700603
recorded.metric: MIC

Any idea what MIC came out for Nc1nc(/C(=N/O[C@@H](CC(=O)O)C(=O)[O-])C(=O)N[C@@H]2C(=O)N3C(c4nnn[nH]4)=C(C[N+]4(CCNC(=O)c5ccc(O)c(O)c5F)CCCC4)CS[C@H]23)cs1 [Compound I-102] on K. pneumoniae ATCC700603?
≤ 0.031 mg/L

Any idea what MIC came out for Cc1cc2cc(O)c(O)cc2c[n+]1CC1=C(c2nnn[n-]2)N2C(=O)[C@@H](NC(=O)/C(=N\OC(C)(C)C(=O)[O-])c3csc(N)n3)[C@H]2SC1.[Na+] [Compound I-121] on K. pneumoniae ATCC700603?
≤ 0.031 mg/L

Any idea what MIC came out for CC(C)(O/N=C(\C(=O)N[C@@H]1C(=O)N2C(c3nnn[nH]3)=C(C[n+]3cccc4c3CCCN4C(=O)c3ccc(O)c(O)c3Cl)CS[C@H]12)c1nsc(N)n1)C(=O)O.[Na+] [Compound I-115] on K. pneumoniae ATCC700603?
0.5 mg/L

Any idea what MIC came out for CC(C)(O/N=C(\C(=O)N[C@@H]1C(=O)N2C(c3nnn[nH]3)=C(C[N+]3(CCNC(=O)c4ccc(O)c(O)c4Cl)CCCCC3)CS[C@H]12)c1nsc(N)n1)C(=O)[O-] [Compound I-118] on K. pneumoniae ATCC700603?
0.063 mg/L

Any idea what MIC came out for CC(C)(O/N=C(\C(=O)N[C@@H]1C(=O)N2C(c3nnn[nH]3)=C(C[N@+]34CCC[C@H]3CN(C(=O)c3cc(O)c(O)c(F)c3)CC4)CS[C@H]12)c1nsc(N)n1)C(=O)[O-] [Compound I-111] on K. pneumoniae ATCC700603?
0.5 mg/L
